- target.under.test: Acyl-protein thioesterase 2 (Homo sapiens) (UniProt O95372)
- Sequence (O95372 whole entry, looked up): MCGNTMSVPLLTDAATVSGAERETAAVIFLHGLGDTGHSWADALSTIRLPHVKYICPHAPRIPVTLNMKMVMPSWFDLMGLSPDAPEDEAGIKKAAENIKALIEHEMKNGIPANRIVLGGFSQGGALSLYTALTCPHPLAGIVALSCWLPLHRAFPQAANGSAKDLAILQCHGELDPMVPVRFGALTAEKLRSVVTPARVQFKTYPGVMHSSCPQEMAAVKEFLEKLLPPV
- experiment.description: LYPLA2 inhibitors, primary screen, counter-screen for PME1 inhibitor project, biochemical, fluorescence polarization, FP-Rh probe ABPP (AID 2177);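 also: 0% = LYPLA2 with DMSO and 100% = wells lacking LYPLA2 enzyme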
- experimental.conditions: recombinant LYPLA2, FP-Rh probe fluorescence polarization; at 5.9 µM; hits give high values
Screen size: about 320,000 compounds; about 1,200 (0.38%) were called active. Only a selection was taken, and actives are over-represented in it overall.
parameter.measured: inhibition (%)
Response body: numeric value in %, unit text excluded.

// lookup inhibition for Nc1[nH][nH]c(=O)c1N=Nc1ccc2c(c1)OCO2
28.4

// lookup inhibition for COc1ccc(-c2nnc(SC(C)C(=O)NC3CC3)o2)cc1 (stereo unspecified)
1.72

// lookup inhibition for COCCc1nn2c(=O)cc(COC(=O)c3cc(OC)c(OC)c(OC)c3)nc2s1
7.86

// lookup inhibition for COc1ccccc1OCC(=O)O/N=C(\N)c1ccccn1
-1.78

// lookup inhibition for O=C(c1ccc2c(c1)OCO2)N1CCOCC1
2.23

// lookup inhibition for CC(=O)c1cc2c(cc1N)OCO2
-2.04

// lookup inhibition for Cc1ccc(NC(=O)C(c2ccccc2)N2CCN(C(=O)c3ccco3)CC2)cc1 (stereo unspecified)
0.07

// lookup inhibition for CCOC(=O)c1cc(NC(=O)SCC(=O)O)c(C)nc1C
4.19

// lookup inhibition for O=C(COc1ccc(Cl)cc1)N1CCN(S(=O)(=O)c2ccc(Cl)cc2)CC1
-0.85

// lookup inhibition for Cc1csc2nc(COC(=O)c3cccc(N(C)C)c3)cc(=O)n12
6.85

// lookup inhibition for O=C(COc1ccc(NC(=O)c2ccccc2[N+](=O)[O-])cc1)c1ccc(F)cc1
43.8
